- experiment description: Pharmacokinetic study in rats (plasma, LC-MS/MS)
- run conditions: male, Sprague-Dawley (SD), rat, plasma, po, 20 mg/kg
observable: Cmax
Returns: string containing the number followed by the unit.

// query Looking for the measured Cmax of FC(F)(F)Oc1ccc(Nc2ccc3cccc(Cl)c3n2)cc1 [ABX464, reference compound] , can you help?
// result 727 ng/mL

* * *

- experiment description: Pharmacokinetic study in rats (plasma, LC-MS/MS)
- run conditions: male, Sprague-Dawley (SD), rat, plasma, po, 20 mg/kg
observable: Tmax
Returns: string containing the number followed by the unit.

// query Looking for the measured Tmax of FC(F)(F)Oc1ccc(Nc2ccc3cccc(Cl)c3n2)cc1 [ABX464, reference compound] , can you help?
// result 2 h

* * *

- experiment description: Pharmacokinetic study in beagle dogs (plasma, LC-MS/MS)
- Type: in vivo
- run conditions: dog, in vivo, po, p.o. 6 mg/kg
observable: AUC(0-t) (ng·h/mL)
Report only the number, with the unit ng·h/mL understood.

// query Looking for the measured AUC(0-t) of FC(F)(F)Oc1ccc(Nc2ncc3c(N4CCOCC4)cc(Cl)cc3n2)cc1 [Compound 45] , can you help?
// result 990

* * *

- experiment description: Pharmacokinetic study in rats (plasma, LC-MS/MS)
- run conditions: rat, in vivo, po, 25 mg/kg
observable: half-life (h)
Report only the number, with the unit h understood.

// query Looking for the measured half-life of CN(C)CCN(C)c1cc(Cl)cc2nc(Nc3ccc(OC(F)(F)F)cc3)ncc12 , can you help?
// result 8.7

// query Looking for the measured half-life of FC(F)(F)Oc1ccc(Nc2ncc3c(N4CCOCC4)cc(Cl)cc3n2)cc1 , can you help?
// result 5.4

* * *

- experiment description: Pharmacokinetic study in rats (plasma, LC-MS/MS)
- run conditions: rat, in vivo, po, 20 mg/kg
observable: half-life (min)
Report only the number, with the unit min understood.

// query Looking for the measured half-life of FC(F)(F)Oc1ccc(Nc2ncc3ccc(Cl)cc3n2)cc1 , can you help?
// result 159

* * *

- experiment description: Pharmacokinetic study in rats (plasma, LC-MS/MS)
- run conditions: rat, in vivo, po, 20 mg/kg
observable: AUC(0-t) (ng·h/mL)
Report only the number, with the unit ng·h/mL understood.

// query Looking for the measured AUC(0-t) of FC(F)(F)Oc1ccc(Nc2ncc3ccc(Cl)cc3n2)cc1 , can you help?
// result 5060

* * *

- experiment description: Pharmacokinetic study in rats (plasma, LC-MS/MS)
- run conditions: male, Sprague-Dawley (SD), rat, plasma, po, 20 mg/kg
observable: half-life
Returns: string containing the number followed by the unit.

// query Looking for the measured half-life of FC(F)(F)Oc1ccc(Nc2ccc3cccc(Cl)c3n2)cc1 [ABX464, reference compound] , can you help?
// result 51.6 min

* * *

Assign Tmax to each entry below.
- experiment description: Pharmacokinetic study in rats (plasma, LC-MS/MS)
- run conditions: rat, in vivo, po, 25 mg/kg
Report only the number, with the unit h understood.

// query Looking for the measured Tmax of FC(F)(F)Oc1ccc(Nc2ncc3c(N4CCOCC4)cc(Cl)cc3n2)cc1 [Compound 45] , can you help?
// result 2

// query Looking for the measured Tmax of CN(C)CCN(C)c1cc(Cl)cc2nc(Nc3ccc(OC(F)(F)F)cc3)ncc12 [Compound 44] , can you help?
// result 6
